Measurement notes: AUC (0 to infinity) in Sprague-Dawley rat at 20 mg/kg, po
Format: ADME, organism-based
Set-up: dose 20 mg/kg, route po
Condition set: in vivo
Metric: AUC(0-inf) (ng·h/mL)
Note: unit ng·h/mL is implicit; provide only the numeric part.

Prompt: Indicate its recorded AUC(0-inf); the compound in question is "Cl.N[C@H]1CCN(c2c3c(nc4ccc(-c5ccnc(NC(=O)C6CC6)n5)cc24)CCCCC3)C1"
Response: 316

* * *

Measurement notes: Selectivity index, ratio of IC50 for human full length CDK2/CyclinA to IC50 for CDK9/CyclinT1 (unknown origin)
Metric: Selectivity Index
// no unit string in output, number only

Consider the reported Selectivity Index for these compounds:
Compound smiles	Quantitative readout
N[C@H]1CCN(c2c3c(nc4ccc(-c5ccnc(NC(=O)C6CCC6)c5)cc24)CCCCCC3)C1	3
N[C@@H]1CCN(c2c3c(nc4ccc(-c5ccnc(NC(=O)C6CC6)c5)cc24)CCCCC3)C1	3
N[C@H]1CCN(c2c3c(nc4ccc(-c5ccnc(NC(=O)C6CC6)c5)cc24)CCCCCC3)C1	2

Now, please, on to the next compound.
Prompt: Indicate its recorded Selectivity Index; the compound in question is "N[C@H]1CCN(c2c3c(nc4ccc(-c5ccnc(NC(=O)C6CC6)c5)cc24)CCCCC3)C1"
Response: 3

* * *

Measurement notes: Selectivity index, ratio of IC50 for electric eel AChE to IC50 for CDK9/CyclinT1 (unknown origin)
Metric: Selectivity Index
// no unit string in output, number only

Consider the reported Selectivity Index for these compounds:
Compound smiles	Selectivity Index
N[C@H]1CCN(c2c3c(nc4ccc(-c5ccnc(NC(=O)C6CCC6)c5)cc24)CCCCC3)C1	4290
N[C@H]1CCN(c2c3c(nc4ccc(-c5ccnc(NC(=O)C6CC6)n5)cc24)CCCCCC3)C1	7200

Prompt: Indicate its recorded Selectivity Index; the compound in question is "N[C@H]1CCN(c2c3c(nc4ccc(-c5ccnc(NC(=O)C6CCC6)c5)cc24)CCC3)C1"
Response: 275

* * *

Measurement notes: AUC (0 to t) in Sprague-Dawley rat at 2 mg/kg, iv
Assay type: ADME, organism-based
Parameters: dose 2 mg/kg, route iv
Condition set: in vivo
Metric: AUC(0-t)

Prompt: Indicate its recorded AUC(0-t); the compound in question is "Cl.N[C@H]1CCN(c2c3c(nc4ccc(-c5ccnc(NC(=O)C6CC6)n5)cc24)CCCCC3)C1"
Response: 110 ng·h/mL

* * *

Tested on: A549
Measurement notes: Antiproliferative activity against human A549 cells assessed as cell growth inhibition after 72 hrs by MTT assay
Type: functional
Metric: GI50

Consider the reported GI50 for these compounds:
Compound smiles	Tested on	Result
N[C@H]1CCN(c2c3c(nc4ccc(-c5ccccc5)cc24)CCCCC3)C1	A549	9530 nM
N[C@H]1CCN(c2c3c(nc4ccc(-c5ccnc(NC(=O)C6CC6)c5)cc24)-c2ccccc2CCC3)C1	A549	1900 nM
N[C@H]1CCN(c2c3c(nc4ccc(-c5nccc(NC(=O)C6CC6)n5)cc24)CCCCC3)C1	A549	> 10000 nM
N[C@@H]1CCN(c2c3c(nc4ccc(-c5ccnc(NC(=O)C6CC6)c5)cc24)CCCCC3)C1	A549	41 nM

Prompt: Indicate its recorded GI50; the compound in question is "CN(C)S(=O)(=O)c1ccc(Nc2cc(-c3ccc4nc5c(c(N6CC[C@H](N)C6)c4c3)CCCCC5)ccn2)cc1"
Response: 1990 nM

* * *

Measurement notes: Selectivity index, ratio of IC50 for equine serum BuChE to IC50 for CDK9/CyclinT1 (unknown origin)
Metric: Selectivity Index
// no unit string in output, number only

Consider the reported Selectivity Index for these molecules:
Compound smiles	Selectivity Index
CN(C)S(=O)(=O)c1ccc(Nc2cc(-c3ccc4nc5c(c(N6CC[C@H](N)C6)c4c3)CCCCC5)ccn2)cc1	10
N[C@H]1CCN(c2c3c(nc4ccc(-c5ccncc5)cc24)CCCCC3)C1	51
N[C@H]1CCN(c2c3c(nc4ccc(-c5ccnc(NC(=O)C6CC6)n5)cc24)CCCCCC3)C1	948
N[C@H]1CCN(c2c3c(nc4ccc(-c5ccnc(NC(=O)C6CCC6)c5)cc24)CCCCCC3)C1	235
N[C@H]1CCN(c2c3c(nc4ccc(-c5ccnc(NC(=O)C6CCC6)c5)cc24)CCC3)C1	497

Now, please, on to the next molecule.
Prompt: Indicate its recorded Selectivity Index; the molecule in question is "N[C@H]1CCN(c2c3c(nc4ccc(-c5ccnc(NC(=O)C6CC6)c5)cc24)CCC3)C1"
Response: 1790

* * *

Measurement notes: Acute toxicity in Kunming mouse assessed as survival at 159 mg/kg, po measured for 2 weeks
Format: organism-based
Condition set: in vivo
Metric: survival at 336 h (%)
Note: unit % is implicit; provide only the numeric part.

Prompt: Indicate its recorded survival at 336 h; the compound in question is "Cl.N[C@H]1CCN(c2c3c(nc4ccc(-c5ccnc(NC(=O)C6CC6)n5)cc24)CCCCC3)C1"
Response: 0

* * *

Measurement notes: Half life in Sprague-Dawley rat at 2 mg/kg, iv
Format: ADME, organism-based
Condition set: in vivo
Metric: half-life (min)
Note: unit min is implicit; provide only the numeric part.

Prompt: Indicate its recorded half-life; the compound in question is "Cl.N[C@H]1CCN(c2c3c(nc4ccc(-c5ccnc(NC(=O)C6CC6)n5)cc24)CCCCC3)C1"
Response: 27.7

* * *

Measurement notes: Volume of distribution at steady state in Sprague-Dawley rat at 2 mg/kg, iv
Assay type: ADME, organism-based
Condition set: in vivo, read-out: Vdss
Metric: Vd (L/kg)
Note: unit L/kg is implicit; provide only the numeric part.

Prompt: Indicate its recorded Vd; the compound in question is "Cl.N[C@H]1CCN(c2c3c(nc4ccc(-c5ccnc(NC(=O)C6CC6)n5)cc24)CCCCC3)C1"
Response: 12.6

* * *

Test system: MCF7
Measurement notes: Antiproliferative activity against human MCF7 cells assessed as cell growth inhibition after 72 hrs by MTT assay
Type: functional
Below is a list of entries, each paired with its recorded GI50 value.
Note: unit nM is implicit; provide only the numeric part.

Compound smiles	Tested on	GI50 / nM
N[C@H]1CCN(c2c3c(nc4ccc(-c5ccnc(NC(=O)C6CCCC6)c5)cc24)CCCCC3)C1	MCF7	210
N[C@H]1CCN(c2c3c(nc4ccc(-c5ccnc(NC(=O)C6CCCCC6)c5)cc24)CCCCC3)C1	MCF7	404
N[C@H]1CCN(c2c3c(nc4ccc(-c5ccnc(F)c5)cc24)CCCCC3)C1	MCF7	7080

Prompt: Indicate its recorded GI50; the compound in question is "N[C@H]1CCN(c2c3c(nc4ccc(-c5ccncc5)cc24)CCCCC3)C1"
Response: 424

Prompt: Indicate its recorded GI50; the compound in question is "N[C@H]1CCN(c2c3c(nc4ccc(-c5ccccc5)cc24)CCCCC3)C1"
Response: 4060

Prompt: Indicate its recorded GI50; the compound in question is "N[C@H]1CCN(c2c3c(nc4ccc(-c5ccnc(NC(=O)C6CCC6)c5)cc24)CCC3)C1"
Response: 333

Prompt: Indicate its recorded GI50; the compound in question is "N[C@H]1CCN(c2c3c(nc4ccc(-c5ccnc(Nc6ccc(S(=O)(=O)N7CCCC7)cc6)c5)cc24)CCCCC3)C1"
Response: 3240

Prompt: Indicate its recorded GI50; the compound in question is "N[C@H]1CCN(c2c3c(nc4ccc(-c5cc(NC(=O)C6CC6)ncn5)cc24)CCCCC3)C1"
Response: 161

Prompt: Indicate its recorded GI50; the compound in question is "Cl.N[C@H]1CCN(c2c3c(nc4ccc(-c5ccnc(NC(=O)C6CC6)n5)cc24)CCCCC3)C1"
Response: 6

Prompt: Indicate its recorded GI50; the compound in question is "N[C@H]1CCN(c2c3c(nc4ccc(-c5ccnc(NC(=O)C6CCC6)c5)cc24)CCCCC3)C1"
Response: 168

Prompt: Indicate its recorded GI50; the compound in question is "N[C@H]1CCN(c2c3c(nc4ccc(-c5ccnc(NC(=O)C6CCC6)c5)cc24)CCCCCC3)C1"
Response: 108

Prompt: Indicate its recorded GI50; the compound in question is "N[C@H]1CCN(c2c3c(nc4ccc(-c5ccnc(NC(=O)C6CC6)n5)cc24)CCCCCC3)C1"
Response: 71

Prompt: Indicate its recorded GI50; the compound in question is "N[C@H]1CCN(c2c3c(nc4ccc(-c5ccnc(C(=O)NC6CC6)c5)cc24)CCCCC3)C1"
Response: 10400

Prompt: Indicate its recorded GI50; the compound in question is "CCc1cnn2c(NCc3ccc[n+]([O-])c3)cc(N3CCCC[C@H]3CCO)nc12"
Response: 12

Prompt: Indicate its recorded GI50; the compound in question is "N[C@@H]1CCN(c2c3c(nc4ccc(-c5ccnc(NC(=O)C6CC6)c5)cc24)CCCCC3)C1"
Response: 80

Prompt: Indicate its recorded GI50; the compound in question is "N[C@H]1CCN(c2c3c(nc4ccc(-c5ccnc(NC(=O)C6CC6)c5)cc24)CCCC3)C1"
Response: 109

Prompt: Indicate its recorded GI50; the compound in question is "N[C@H]1CCN(c2c3c(nc4ccc(-c5ccnc(Nc6ccc(S(=O)(=O)N7CCNCC7)cc6)c5)cc24)CCCCC3)C1"
Response: 11600

Source listed as ChEMBL document CHEMBL5352406.
